Ref: patent US20240247080A1

Target: T1, human GIP receptor (human, UniProt P48546 22-466)
T1 sequence (looked up): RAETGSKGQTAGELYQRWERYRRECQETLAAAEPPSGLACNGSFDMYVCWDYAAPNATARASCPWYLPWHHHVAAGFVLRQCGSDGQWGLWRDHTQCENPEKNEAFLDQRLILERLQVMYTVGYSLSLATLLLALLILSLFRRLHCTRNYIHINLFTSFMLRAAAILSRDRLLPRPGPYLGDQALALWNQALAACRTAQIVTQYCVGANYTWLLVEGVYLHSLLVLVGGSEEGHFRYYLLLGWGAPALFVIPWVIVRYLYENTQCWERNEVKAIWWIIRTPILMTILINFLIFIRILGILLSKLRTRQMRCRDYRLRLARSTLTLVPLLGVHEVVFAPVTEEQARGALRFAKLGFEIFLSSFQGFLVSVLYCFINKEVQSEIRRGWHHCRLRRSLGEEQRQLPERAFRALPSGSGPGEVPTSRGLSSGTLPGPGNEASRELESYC
Assay: cell-based or functional assay
Starred links: 1 amine or outer side, 2 acyl side, 3 side chain; linkers in the order of their positions; H or OH if unused. Non-standard residues stand in square brackets, D forms with d. Groups on a side chain read outwards from the residue. No end group written: not given here. *: point of attachment. C20 diacid = O=C(O)CCCCCCCCCCCCCCCCCCC(=O)*; C18 diacid = O=C(O)CCCCCCCCCCCCCCCCC(=O)*; γGlu = O=C(O)[C@H](CCC(=O)[*:2])N[*:1]; εLys = N[C@@H](CCCCN[*:1])C(=O)[*:2]; Aib = CC(C)(N)C(=O)O
Mark each entry T if its EC50 hGIPR 0.5% hP (CreLuc) sits below 0.3 nM, and F for all others.

Y[Aib]EGTFTSDYSI[Aib]LEKQAQ[Aib]AFVEWLIK([εLys-γGlu-γGlu-γGlu-γGlu-γGlu-γGlu-γGlu-C20 diacid])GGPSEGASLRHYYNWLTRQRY-NH2 (also: TFA salt) [Compound 288] ... F
Y[Aib]EGTFTSDYSI[Aib]LEKQAQ[Aib]AFVEWLIKGGPEEGASLRHYYNWLTRQRY-NH2 (not fully specified (residue 28); also: TFA salt) [Compound 285] ... F
Y[Aib]EGTFTSDYSI[Aib]LEKQAQ[Aib]AFVQWLIK([Glu-Glu-Glu-Glu-C18 diacid])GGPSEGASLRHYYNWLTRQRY-NH2 (also: TFA salt) [Compound 281] ... T
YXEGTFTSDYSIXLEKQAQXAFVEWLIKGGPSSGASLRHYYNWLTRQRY (Aib at 2, 13, 20; K28 side chain acylated with C18DA-gGlu-gGlu-gGlu-gGlu-gGlu-AHX; C-terminal amide (NH2)) [Compound 260] ... F

Field: below-cutoff. Rule: recorded EC50 hGIPR 0.5% hP (CreLuc) strictly less than 0.3 nM. Subject: YXEGTFTSDYSIXLEKQAQXAFVEWLIKGGPSEGASLRHYYNWLTRXRY (Aib at 2, 13, 20; bHGln (beta-homo-L-glutamine) at 47; K28 side chain acylated with C20DA-gGlu-gGlu-gGlu-gGlu-gGlu-gGlu-eLys; C-terminal amide (NH2)) [Compound 277]
T
